Below: a set of entries, each annotated with reported inhibition.
# measurement_target: Sialyltransferase ST3Gal-I (Rattus norvegicus)
# Sequence (whole entry): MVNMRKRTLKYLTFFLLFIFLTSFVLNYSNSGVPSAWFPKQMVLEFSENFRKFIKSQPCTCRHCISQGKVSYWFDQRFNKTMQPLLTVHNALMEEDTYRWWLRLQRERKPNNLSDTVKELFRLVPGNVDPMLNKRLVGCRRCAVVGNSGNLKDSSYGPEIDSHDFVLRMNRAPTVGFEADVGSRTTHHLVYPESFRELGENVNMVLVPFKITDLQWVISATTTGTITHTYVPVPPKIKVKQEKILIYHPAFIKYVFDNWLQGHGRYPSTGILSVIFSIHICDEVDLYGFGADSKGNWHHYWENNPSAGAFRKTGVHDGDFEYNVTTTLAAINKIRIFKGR
# experimental_protocol: Inhibition of rat ST3GAL1 at 500 uM by UPLC-based assay relative to control
measured_property: inhibition (%)

>>> print(df.to_string())
                                 smiles_str  experimental_result
0  C[C@H](CCCS(=O)(=O)O)[C@H]1CC[C@H]2[C@@H]3CC[C@@H]4C[C@H](OS(=O)(=O)O)CC[C@]4(C)[C@H]3CC[C@]12C                   35
1  C[C@H](CCC(=O)NCCS(=O)(=O)O)[C@H]1CC[C@H]2[C@@H]3CC[C@@H]4C[C@H](O)CC[C@]4(C)[C@H]3C[C@H](O)[C@]12C                    3
2  C[C@H](CCC(=O)O)[C@H]1CC[C@H]2[C@@H]3CC[C@@H]4C[C@H](O)CC[C@]4(C)[C@H]3CC[C@]12C                   53
3  C[C@H](CCCOS(=O)(=O)O)[C@H]1CC[C@H]2[C@@H]3CC[C@@H]4C[C@H](OS(=O)(=O)O)CC[C@]4(C)[C@H]3CC[C@]12C                   90
4  C[C@H](CCC(=O)O)[C@H]1CC[C@H]2[C@@H]3CC[C@@H]4C[C@H](OS(=O)(=O)O)CC[C@]4(C)[C@H]3CC[C@]12C                   23

###

Below: a set of entries, each annotated with reported inhibition.
# measurement_target: Sialyltransferase ST3Gal-I (Rattus norvegicus) (UniProt Q6H8N0)
# experimental_protocol: Inhibition of rat ST3GAL1 at 1000 uM by UPLC-based assay relative to control
measured_property: inhibition (%)

>>> df
                                 smiles_str  unit_of_measure  experimental_result
0  C[C@H](CCC(=O)O)[C@H]1CC[C@H]2[C@@H]3CC[C@@H]4C[C@H](OS(=O)(=O)O)CC[C@]4(C)[C@H]3CC[C@]12C                %                   82
1  C[C@H](CCCS(=O)(=O)O)[C@H]1CC[C@H]2[C@@H]3CC[C@@H]4C[C@H](OS(=O)(=O)O)CC[C@]4(C)[C@H]3CC[C@]12C                %                  100
2  C[C@H](CCCOS(=O)(=O)O)[C@H]1CC[C@H]2[C@@H]3CC[C@@H]4C[C@H](OS(=O)(=O)O)CC[C@]4(C)[C@H]3CC[C@]12C                %                  100
3  C[C@H](CCCOS(=O)(=O)O)[C@H]1CC[C@H]2[C@@H]3CC[C@@H]4C[C@H](O)CC[C@]4(C)[C@H]3CC[C@]12C                %                   15
4  C[C@H](CCCS(=O)(=O)O)[C@H]1CC[C@H]2[C@@H]3CC[C@@H]4C[C@H](O)CC[C@]4(C)[C@H]3CC[C@]12C                %                   40
5  C[C@H](CCC(=O)O)[C@H]1CC[C@H]2[C@@H]3CC[C@@H]4C[C@H](O)CC[C@]4(C)[C@H]3CC[C@]12C                %                   64

// provenance: ChEMBL document CHEMBL5634174
